# system.name: SULT1B1 (Homo sapiens, UniProt O43704)
# Construct: made in house; host or cells: Escherichia coli
# Sequence (O43704 whole entry): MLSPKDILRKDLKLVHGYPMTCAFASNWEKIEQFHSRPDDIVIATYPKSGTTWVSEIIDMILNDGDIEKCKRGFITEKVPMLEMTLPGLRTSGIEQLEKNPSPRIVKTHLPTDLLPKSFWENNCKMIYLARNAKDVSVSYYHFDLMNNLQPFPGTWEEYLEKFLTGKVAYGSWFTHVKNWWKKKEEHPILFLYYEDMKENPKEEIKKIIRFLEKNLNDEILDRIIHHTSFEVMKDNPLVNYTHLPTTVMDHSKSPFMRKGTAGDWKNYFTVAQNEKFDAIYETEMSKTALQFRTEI
# assay.summary: Inhibition of 3-OH-BaP sulfotransferase activity by OH-PCBs with cDNA-expressed SULT1B1
# Format: biochemical
# conditions.used: 1.0 μM 3-OH-BaP; mean of duplicates; read-out: IC50 SULT1B1
pIC50: −log10 of the molar value. Values joined by “and” are separate entries in the source; they are usually repeats but may differ in a detail not shown here. Equal values may be shown once.
attribute.measured: pIC50

Below, 4 compounds whose answers are already recorded.
Oc1c(Cl)cc(-c2c(Cl)c(Cl)cc(Cl)c2Cl)cc1Cl :: < 4.00
Oc1ccc(-c2ccc(Cl)c(Cl)c2)cc1Cl :: 4.78 and 4.77
Oc1c(Cl)cc(-c2cc(Cl)c(Cl)c(Cl)c2Cl)cc1Cl :: < 4.00
Oc1c(Cl)cc(-c2cc(Cl)ccc2Cl)cc1Cl :: < 4.00

Problem: Please look up its pIC50: Oc1ccc(-c2c(Cl)cc(Cl)cc2Cl)cc1Cl
Result: < 4.00
